Test system: PANC-02-03 (Pancreatic Carcinoma);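 further: after 72 h of two-drug dosing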
Assay: Bliss excess, mean over the matrix (fraction); higher = more synergy
measure-name: Bliss excess
Give your answer as a number; write no unit.

>>> value_reported("C=CCn1c(=O)c2cnc(Nc3ccc(N4CCN(C)CC4)cc3)nc2n1-c1cccc(C(C)(C)O)n1 [AZD1775] + Nc1ccn([C@@H]2O[C@H](CO)[C@@H](O)C2(F)F)c(=O)n1 [Gemcitabine] (first compound max 1 µM, partner max 0.3 µM)")
0.0035

Request - read-out Bliss excess | tested on PANC-02-03 (Pancreatic Carcinoma) | compound CC1(C)CCC(CN2CCN(c3ccc(C(=O)NS(=O)(=O)c4ccc(NCC5CCOCC5)c([N+](=O)[O-])c4)c(Oc4cnc5[nH]ccc5c4)c3)CC2)=C(c2ccc(Cl)cc2)C1 [Venetoclax] + C[C@@H](Nc1cc(F)cc(F)c1)c1cc(C(=O)N(C)C)cc2c(=O)cc(N3CCOCC3)oc12 [AZD8186] (first compound max 1 µM, 7x7, partner max 3 µM);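 further: after 72 h of two-drug dosing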
-0.0527

# iterate: Cc1nc(-c2cn3c(n2)-c2ccc(-c4cnn(C(C)(C)C(N)=O)c4)cc2OCC3)n(C(C)C)n1 [Taselisib] + O=C(Nc1ccc2[nH]nc(-c3ccncc3)c2c1)[C@@H]1CCN(CC(=O)N2CCN(c3ccc(-c4ncccn4)cc3)CC2)C1 [SCH772984] (first compound max 10 µM, 7x7, partner max 5 µM)
0.126
